Molecular target: T1, AAV8
T1 construct: also called adeno-associated virus serotype 8
Assay: SPR, AAV on CM5 chip;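 also: surface plasmon resonance with AAV amine-coupled to the chip as ligand, nanobodies injected as analyte over a concentration series, rate constants and affinity fitted from binding curves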
readout-name: kon (M⁻¹ s⁻¹)
Number only, in M⁻¹ s⁻¹; omit the unit.

The measured kon associated with A4-011 (VHH) VHH: VQLQESGGGLVQAGGSLRLSCAASGSIFSINSMGWYRQAPGKQRELVATVTRGGNTNYAGSVKGRFTISRDNAKNTVYLQMNSLRPEDTAVYYCHVDEVRESSWTTSNLWGQGTQVTVSS reads 89400

Notebook: A4-028 (VHH) VHH: VQLQESGGGLVQPGGSLRLSCAASGSNFSINTMGWYRQAPGKQRELVATVTRGGDTNYADSVKGRFTISRDNAKNTVYLQMNSLRPEDTAVYYCHVDEIRESSWTTSNLWGQGTQVTVSS , kon read as 133000

Reported kon ( A4-005 (VHH) VHH: VQLQESGGGLVQAGGSLRLSCAASGRHFSINTMGWYRQAPGKQRELVAAVTRGGGTNYAGSVKGRFTISRDNAKNTVYLQMNSLRPEDTAVYYCHIDEVRQSSWTTSNIWGQGTQVTVSS ) = 449000

Record A4-019 (VHH) VHH: VQLQESGGGLVQAGGSLRLSCAASGSTFSINTMGWYRQAPGKQRELVATITRGGSTNYADSVKGRFTISRDNAKNTVYLQMNSLRPEDTAVYYCHVDEVRQSSWTTSNIWGQGTQVTVSS , field kon: 113000

kon reported for this binder A4-029 (VHH) VHH: VQLQESGGGLVQPGGSLRLSCAASGSNFSINTMGWYRQRAGKQRELVATVTRGGSTNYADSVKGRFTISRDNAKNTVYLQMNSLRPEDTAVYYCHIDEIRESSWTTSNLWGQGTQVTVSS : 82300

Looking up A4-024 (VHH) VHH: VQLQESGGGLVQPGGSLRLSCAASGSNFRINTMGWYRQAPGKQRELVATVTRGGSTNYADSVKGRFTISRDNPKNTVYLQMNSLRPEDTAVYYCHVDEVRESSWTTSNLWGQGTQVTVSS , I found its kon recorded as 7080

Lab book: kon of A4-027 (VHH) VHH: VQLQESGGGLVQPGGSLRLSCAASGSNFSINTMGWYRQAPGKQRELVAALTRGGSTNYADSVKGRFTISRDNAKNTVYLQMNSLRPEDTAVYYCHVDEVRESSWTTSNLWGQGTQVTVSS noted as 8100

Summary for this binder, A4-034 (VHH) VHH: VQLQESGGGLVQPGGSLRLSCAASGRGFSINTMGWYRQAPGKQRELVAAVTRGGTTNYADSVKGRFTISRDNAKNTVYLQMNSLRPEDTAVYYCHVDEVRQSSWTTSNLWGQGTQVTVSS : kon is 59900
